Tested on: IGROV-1
method notes: SRB colorimetric assay of cell growth and viability, IGROV-1
Assay type: cell-based, human
condition parameters: 48 hours exposure
readout type: LC50 (concentration causing 50% net cell killing) (nM)
Just the number in nM, nothing appended.

## Task Record request: LC50 (concentration causing 50% net cell killing) value, item C/C=C1\NC(=O)[C@H](Cc2ccccc2)NC(=O)[C@@H](C(C)C)NC(=O)[C@@H]([C@@H](C)CC)NC(=O)[C@H](NC(=O)[C@H](NC(=O)[C@H](CCCN)NC(=O)[C@H]2CCCN2C(=O)[C@H](NC(=O)[C@@H](NC(=O)[C@@H](NC(=O)[C@H](NC(=O)CCCCCCCCCC)C(C)C)[C@@H](C)O)C(C)C)C(C)C)[C@@H](C)CC)[C@@H](C)OC(=O)[C@H](C(C)C)NC1=O [Compound 15, [Und^14]-KF]
## Result 1540

## Task Record request: LC50 (concentration causing 50% net cell killing) value, item C/C=C1\NC(=O)[C@H](Cc2ccccc2)NC(=O)[C@@H](C(C)C)NC(=O)[C@@H]([C@@H](C)CC)NC(=O)[C@H](NC(=O)[C@H](NC(=O)[C@H](CCCCN)NC(=O)[C@H]2CCCN2C(=O)[C@H](NC(=O)[C@@H](NC(=O)[C@@H](NC(=O)[C@H](NC(=O)CCCC(C)C)C(C)C)[C@@H](C)O)C(C)C)C(C)C)[C@@H](C)CC)[C@@H](C)OC(=O)[C@H](C(C)C)NC1=O [Compound 5, [Lys^8]-KF]
## Result 1230

###

Tested on: SK-MEL-28
method notes: SRB colorimetric assay of cell growth and viability, SK-MEL-28
Assay type: cell-based, human
condition parameters: 48 hours exposure
Where a SMILES comes first, the peptide text is derived from it. Bridges are numbered along the chain shown (N, C = ends). [ ]: non-standard residue; d: D form. The star is where a group is joined. d(aIle) = CC[C@H](C)[C@@H](N)C(=O)O; d(aThr) = C[C@@H](O)[C@@H](N)C(=O)O; Hexanoyl(5-Me) = CC(C)CCCC(=O)*; Orn = NCCC[C@H](N)C(=O)O; Dhb = C/C=C(\N)C(=O)O
Some compounds, each annotated with its measured TGI MEL-28.
Just the number in Molar, nothing appended.

As a guide, the following entries are already answered.
[
  {
    "compound": "C/C=C1\\NC(=O)[C@H](Cc2ccccc2)NC(=O)[C@@H](C(C)C)NC(=O)[C@@H]([C@@H](C)CC)NC(=O)[C@H](NC(=O)[C@H](NC(=O)[C@H](CCCN)NC(=O)[C@H]2CCCN2C(=O)[C@H](NC(=O)[C@@H](NC(=O)[C@@H](NC(=O)[C@H](NC(=O)CCCC(C)C)C(C)C)[C@@H](C)O)[C@@H](C)O)C(C)C)[C@@H](C)CC)[C@@H](C)OC(=O)[C@H](C(C)C)NC1=O [Compound 50, [Thr^11]-KF] ({Hexanoyl(5-Me)}-[dV]TT[dV][dP][Orn][d(aIle)][d(aThr)][d(aIle)][dV]F[Dhb]V; ester 8-C)",
    "output unit": "Molar",
    "TGI MEL-28": "6.76E−06"
  },
  {
    "compound": "C/C=C1\\NC(=O)[C@H](Cc2ccccc2)NC(=O)[C@@H](C(C)C)NC(=O)[C@@H]([C@@H](C)CC)NC(=O)[C@H](NC(=O)[C@H](NC(=O)[C@H](CCCN)NC(=O)[C@H]2CCCN2C(=O)[C@H](NC(=O)[C@@H](NC(=O)[C@@H](NC(=O)[C@H]2CCCN2C(=O)CCCC(C)C)[C@@H](C)O)C(C)C)C(C)C)[C@@H](C)CC)[C@@H](C)OC(=O)[C@H](C(C)C)NC1=O [Compound 37, [D-Pro^13]-KF]",
    "output unit": "Molar",
    "TGI MEL-28": "2.76E−07"
  },
  {
    "compound": "C/C=C1\\NC(=O)[C@H](Cc2ccccc2)NC(=O)[C@@H](C(C)C)NC(=O)[C@@H]([C@@H](C)CC)NC(=O)[C@H](NC(=O)[C@H](NC(=O)[C@H](CCCN)NC(=O)[C@H]2CCCN2C(=O)[C@H](NC(=O)[C@@H](NC(=O)[C@@H](NC(=O)[C@H](NC(=O)CCCCCCCCCC)C(C)C)[C@@H](C)O)C(C)C)C(C)C)[C@@H](C)CC)[C@@H](C)OC(=O)[C@H](C(C)C)NC1=O [Compound 15, [Und^14]-KF]",
    "output unit": "Molar",
    "TGI MEL-28": "4.45E−07"
  }
]

## Task I'm curious: which TGI MEL-28 was measured for C/C=C1\NC(=O)[C@H](Cc2ccccc2)NC(=O)[C@@H](C(C)C)NC(=O)[C@@H]([C@@H](C)CC)NC(=O)[C@H](NC(=O)[C@H](NC(=O)[C@H](CCCN)NC(=O)[C@H]2CCCN2C(=O)[C@H](NC(=O)[C@@H](NC(=O)[C@@H](NC(=O)[C@H](NC(=O)CCCCC(C)(F)F)C(C)C)[C@@H](C)O)C(C)C)C(C)C)[C@@H](C)CC)[C@@H](C)OC(=O)[C@H](C(C)C)NC1=O [Compound 28, [6,6-dFHep^14]-KF] tested on SK-MEL-28?
## Result 2.55E−06

## Task I'm curious: which TGI MEL-28 was measured for C/C=C1\NC(=O)[C@H](Cc2ccccc2)NC(=O)[C@@H](C(C)C)NC(=O)[C@@H]([C@@H](C)CC)NC(=O)[C@H](NC(=O)[C@H](NC(=O)[C@H](CCCN)NC(=O)[C@H]2CCCN2C(=O)[C@H](NC(=O)[C@@H](NC(=O)[C@@H](NC(=O)[C@H](NC(=O)CCCNC(=N)N)C(C)C)[C@@H](C)O)C(C)C)C(C)C)[C@@H](C)CC)[C@@H](C)OC(=O)[C@H](C(C)C)NC1=O [Compound 29, [4-GuBut^14]-KF] tested on SK-MEL-28?
## Result 6.70E−06

## Task I'm curious: which TGI MEL-28 was measured for C/C=C1\NC(=O)[C@H](Cc2ccccc2)NC(=O)[C@@H](C(C)C)NC(=O)[C@@H]([C@@H](C)CC)NC(=O)[C@H](NC(=O)[C@H](NC(=O)[C@H](CCCN)NC(=O)[C@H]2CCCN2C(=O)[C@H](NC(=O)[C@@H](NC(=O)[C@@H]2CCCN2C(=O)CCCC(C)C)C(C)C)C(C)C)[C@@H](C)CC)[C@@H](C)OC(=O)[C@H](C(C)C)NC1=O [Compound 55, [Pro^12, noD-Val^13]-KF] ({Hexanoyl(5-Me)}-PV[dV][dP][Orn][d(aIle)][d(aThr)][d(aIle)][dV]F[Dhb]V; ester 7-C) tested on SK-MEL-28?
## Result 7.27E−06

###

Tested on: PANC-1
method notes: SRB colorimetric assay of cell growth and viability, PANC-1
Type: cell-based, human
condition parameters: PANC-1; 48 hours exposure
Where a SMILES comes first, the peptide text is derived from it. Bridges are numbered along the chain shown (N, C = ends). [ ]: non-standard residue; d: D form. The star is where a group is joined. d(aIle) = CC[C@H](C)[C@@H](N)C(=O)O; d(aThr) = C[C@@H](O)[C@@H](N)C(=O)O; Hexanoyl(5-Me) = CC(C)CCCC(=O)*; Orn = NCCC[C@H](N)C(=O)O; Dhb = C/C=C(\N)C(=O)O
Some compounds, each annotated with its measured TGI PANC-1.
Just the number in Molar, nothing appended.

[
  {
    "compound": "C/C=C1\\NC(=O)[C@H](Cc2ccccc2)NC(=O)[C@@H](C(C)C)NC(=O)[C@@H]([C@@H](C)CC)NC(=O)[C@H](NC(=O)[C@H](NC(=O)[C@H](CCCN)NC(=O)[C@@H]2CCCN2C(=O)[C@H](NC(=O)[C@@H](NC(=O)[C@@H](NC(=O)[C@H](NC(=O)CC[C@@H](C)CC)C(C)C)[C@@H](C)O)C(C)C)C(C)C)[C@@H](C)CC)[C@@H](C)OC(=O)[C@H](C(C)C)NC1=O [Compound 59, [Pro^9, (4S)-MeHex^14]-KF]",
    "TGI PANC-1 (Molar)": "6.76E−06"
  }
]

## Task Record request: TGI PANC-1 value, item C/C=C1\NC(=O)[C@H](Cc2ccccc2)NC(=O)[C@@H](C(C)C)NC(=O)[C@@H]([C@@H](C)CC)NC(=O)[C@H](NC(=O)[C@H](NC(=O)[C@H](CCCN)NC(=O)[C@H]2CCCN2C(=O)[C@H](NC(=O)[C@@H](NC(=O)[C@H](C)NC(=O)[C@H](NC(=O)CCCC(C)C)C(C)C)C(C)C)C(C)C)[C@@H](C)CC)[C@@H](C)OC(=O)[C@H](C(C)C)NC1=O [Compound 112, [Ala^12]-KF] ({Hexanoyl(5-Me)}-[dV]AV[dV][dP][Orn][d(aIle)][d(aThr)][d(aIle)][dV]F[Dhb]V; ester 8-C)
## Result 5.43E−06
